The entries below come with measured selectivity ratio values attached.
- Assay protocol: Selectivity index, ratio of TC50 for MDCK cells to IC50 for influenza A virus H3N2
- Format: toxicity, cell-based
- Setup conditions: dog, read-out: Selectivity Index
Could you keep your reply to the number by itself?

Smiles representation	Quantitative result
C=C(C(=O)OCCCCCCBr)[C@@H]1CC[C@H](C)[C@@H]2CC(=O)C(C)=C2C1	9
C=C(C(=O)OCCCCCBr)[C@@H]1CC[C@H](C)[C@@H]2CC(=O)C(C)=C2C1	2.8

Note to self: selectivity ratio recorded for `C=C(C(=O)OCCCCCN1CCN(C)CC1)[C@@H]1CC[C@H](C)[C@@H]2CC(=O)C(C)=C2C1` was 10.1

What the record says about `C=C(C(=O)OCCn1cncn1)[C@@H]1CC[C@H](C)[C@@H]2CC(=O)C(C)=C2C1` : selectivity ratio is 3

`C=C(C(=O)OCCCCCCCCBr)[C@@H]1CC[C@H](C)[C@@H]2CC(=O)C(C)=C2C1` yielded selectivity ratio of 10.4

---

- Assay protocol: Selectivity index, ratio of TC50 for MDCK cells to IC50 for influenza A virus H1N1
- Type: toxicity, cell-based
- Setup conditions: dog, read-out: Selectivity Index
# note: exactly 10 is not below, so it is Condition not met; use Condition met for selectivity ratio strictly under it

Compound	Answer label
CCOC(=O)C1=C[C@@H](OC(CC)CC)[C@H](NC(C)=O)[C@@H](N)C1 [OSELTAMIVIR PHOSPHATE]	Condition not met

Below 10 on selectivity ratio? Entry `C=C(C(=O)OCCCCCCn1cncn1)[C@@H]1CC[C@H](C)[C@@H]2CC(=O)C(C)=C2C1`
Condition met

Does `C=C(C(=O)OCCCCN1CCN(C)CC1)[C@@H]1CC[C@H](C)[C@@H]2CC(=O)C(C)=C2C1` have selectivity ratio strictly under 10?
Condition not met

For this compound, is selectivity ratio lower than 10? `C=C(C(=O)OCCCCCCCCCCBr)[C@@H]1CC[C@H](C)[C@@H]2CC(=O)C(C)=C2C1`
Condition not met

Bench note: check whether `C=C(C(=O)OCCCCCBr)[C@@H]1CC[C@H](C)[C@@H]2CC(=O)C(C)=C2C1` shows selectivity ratio below 10
Condition met

Dear reviewer, please state whether `C=C(C(=O)OCCCCCCCCN1CCN(c2ccccc2)CC1)[C@@H]1CC[C@H](C)[C@@H]2CC(=O)C(C)=C2C1` has selectivity ratio strictly beneath 10.
Condition met

Bench note: check whether `C=C(C(=O)OCCCCCCCCCCn1cncn1)[C@@H]1CC[C@H](C)[C@@H]2CC(=O)C(C)=C2C1` shows selectivity ratio below 10
Condition not met

Below 10 on selectivity ratio? Entry `C=C(C(=O)OCCCCCN1CCN(C)CC1)[C@@H]1CC[C@H](C)[C@@H]2CC(=O)C(C)=C2C1`
Condition not met

---

- Assay protocol: Cytotoxicity against MDCK cells
- Type: cell-based, Canis lupus familiaris
- Setup conditions: dog, read-out: TC50 (the source's name)
Quantity measured: CC50 (µM)
Respond numerically; units are µM and should not be typed.

Take a look at these entries with their results.
Smiles representation	Readout units	Quantitative result
C=C(C(=O)OCCn1cncn1)[C@@H]1CC[C@H](C)[C@@H]2CC(=O)C(C)=C2C1	µM	224
C=C(C(=O)OCCCCCBr)[C@@H]1CC[C@H](C)[C@@H]2CC(=O)C(C)=C2C1	µM	54

Per the records, this molecule ( `C=C(C(=O)OCCCN1CCN(C)CC1)[C@@H]1CC[C@H](C)[C@@H]2CC(=O)C(C)=C2C1` ) has CC50 equal to 667
